System: MS2 coat protein
measurement-notes: apparent KD of MS2 coat protein; designed switch direction (-1 OFF switch, 1 ON switch): -1; higher = weaker reporter binding
measurement-context: input ligand: none
measured-metric: apparent KD of MS2 coat protein (nM)
Write the number in nM without appending the unit.

Some entries whose results are on file:
# sequence-record, measured-metric, units, value
data = [
    ("UUUGUUUAUGUAGGAUAUGCCUGGCGUGCCUUCGCAGAAGGACAUGAGGAUCACCCAUGUAUUGCGGUCUGCGUUCAGAUCGCU [salish99_ExNG1_r4_030] (Eterna round: R96, puzzle: Exclusion NG 1)", "apparent KD of MS2 coat protein", "nM", 41.8),
    ("CAUCCACAUGAGGAUCACCCAUGUCAGGAUAUUGUACAAACCCAAUCAUAUUGGGCGUCAAGAAGGGACAUUCU [EX1 B.5] (Eterna round: R97, puzzle: Exclusion 1)", "apparent KD of MS2 coat protein", "nM", 12.4),
    ("AACACACAUGAGGAUCACCCAUGUGAGGAUAUCGUCGAGGUUGUAAUGCCAACCGUGACGAGAAGGCACUUGGG [Exclusion 1 (Mod 3.1 solution 40 by Eternabot)] (Eterna round: R97, puzzle: Exclusion 1)", "apparent KD of MS2 coat protein", "nM", 282),
]

Task item: // returns reported apparent KD of MS2 coat protein for input UUCACGUCAGGAUAUCCAAAGUUCCGAAAUAACGGUACUUUGGAGAAGGGACAUGAGGAUCACCCAUGUCCUCG [LRO-Excl4-17-Nando 22 Mod] (Eterna round: R97, puzzle: Exclusion 4)
Reply: 22

Task item: // returns reported apparent KD of MS2 coat protein for input GUCAGACGAGGAUAUAGAUUUAGAUACAUGAGGAUCACCCAUGUAUACAUGUAUUUAGAUUUAGAAGGCGUCUGAC [E5/14-A4] (Eterna round: R97, puzzle: Exclusion 5)
Reply: 1360

Task item: // returns reported apparent KD of MS2 coat protein for input AAGGGUGCCUUUAGAAAGACAUGAGGAUCACCCAUGUAGACUGAGGAUAUCCACUCCUAAGGACCGGAGAAGGCAGUGUAAUGC [Ex NG3 #62] (Eterna round: R96, puzzle: Exclusion NG 3)
Reply: 31.8

Task item: // returns reported apparent KD of MS2 coat protein for input GAGCUGUGAGGAUAUACAUGAGGAUCACCCAUGUUAAGGAAGUCGGGAUUAAUUUGGUGUAGAAGGCGCUUAUU [JR_Ex3_Sub020] (Eterna round: R97, puzzle: Exclusion 3)
Reply: 42.5

Task item: // returns reported apparent KD of MS2 coat protein for input AUUCAACAUGAGGAUCACCCAUGUGAGGAUAUGCGAGUGUAGACUUCGGUUUGAUAGAGCAGAAGGCGCAGGUA [EX1 #12] (Eterna round: R97, puzzle: Exclusion 1)
Reply: 33.3

---

Here, each record is paired with measured apparent KD of MS2 coat protein data.
System: MS2 coat protein
measurement-notes: apparent KD of MS2 coat protein; higher = weaker reporter binding
measurement-context: Eterna round: R107; input ligand: none
Write the number in nM without appending the unit.

Some entries whose results are on file:
# sequence-record, apparent KD of MS2 coat protein, nM
data = [
    ("UCGUUUGAGGCGGCCGCCACUGGUCUCAUGGUCAACAUGAGGAUCACCCAUGUAUCUUAGUUAAGCAGGACCGGGCCUCGAGCGA [#18 Exclusion Tryptophan B]", 72.7),
    ("UGGGAAGGAGGAAGGAGCGCCAUAAGGGUGACUGUCUGGGUACAUGAGGAUCACCCAUGUAGGCAGGUAGGUCGCCUCGCUCUCA [Bibienoned]", 10.1),
]

Task item: // returns reported apparent KD of MS2 coat protein for input GGAUAGAUAGGAGAUACCAGACACAUUAACAUGAGGAUCACCCAUGUGUCUGCACUAAGUGUCCCUUGGCAGCUCGGAGAUCUGA [Same State - Theophylline B]
Reply: 45.9

Task item: // returns reported apparent KD of MS2 coat protein for input UGUACCAUGUCGGCCGCCACUCAUGAUAAACAAGAGGAUCACCCUUGUAGCGUCAAAGACGCUAUGAGGACCGGGACAUGGUACU [TryBS Zipper 2]
Reply: 29.7

Task item: // returns reported apparent KD of MS2 coat protein for input UAUCCACAUGAGGAUCACCCAUGUAAGGAAGGAGCGGUGAAUGAACCAGGUAGGUCGCCUUGGUGAGGAUCAUCUAUGGAUUCGU [Exclusion - Arginine A (Freestyle 10)]
Reply: 36.8

Task item: // returns reported apparent KD of MS2 coat protein for input AACAUGAGGAUCACCCAUGUUAAGUAUGAAGGAGCGUCGGAAACGACAGGUAGGUCGCAUACUUGGCCUUGUACUUCGUGUGUCU [#02 Exclusion - Arginine A]
Reply: 14.3

These measurements were taken from the supplement of paper PMC9170038.
